B1: CPEB3 Ribozyme (parent)
chain: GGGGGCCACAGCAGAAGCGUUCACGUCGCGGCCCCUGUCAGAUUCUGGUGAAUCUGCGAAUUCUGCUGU

variants of: B1; assay: self-cleavage, relative activity (ratio to wild type); higher = more cleavage; co-transcriptional
propertyMeasured: self-cleavage

>  <change>
G2C C6U

>  <assayResult>
0.0751

$$$$
>  <change>
G4A U53C

>  <assayResult>
0.617

$$$$
>  <change>
G2C G25C

>  <assayResult>
0.0473

$$$$
>  <change>
G3A U21G

>  <assayResult>
0.129

$$$$
>  <change>
G4C G31C

>  <assayResult>
0.105

$$$$
>  <change>
C24A G25U

>  <assayResult>
0.17

$$$$
>  <change>
U46G U67G

>  <assayResult>
0.995

$$$$
>  <change>
G3C A51G

>  <assayResult>
0.0762

$$$$
>  <change>
G4U C27A

>  <assayResult>
0.11

$$$$
>  <change>
G25C U55A

>  <assayResult>
0.107

$$$$
>  <change>
G3C G28A

>  <assayResult>
0.0239

$$$$
>  <change>
A59U G68C

>  <assayResult>
0.941

$$$$
>  <change>
G2U A8G

>  <assayResult>
0.0691

$$$$
>  <change>
A40U U55A

>  <assayResult>
0.936

$$$$
>  <change>
G14A U67G

>  <assayResult>
0.682

$$$$
>  <change>
G4C U21G

>  <assayResult>
0.0719

$$$$
>  <change>
U49A A59G

>  <assayResult>
0.995

$$$$
>  <change>
G14A C35U

>  <assayResult>
0.668

$$$$
>  <change>
G25C G47A

>  <assayResult>
0.102

$$$$
>  <change>
A15U G25U

>  <assayResult>
0.148

$$$$
>  <change>
U55C U69C

>  <assayResult>
1.06

$$$$
>  <change>
C18U G48U

>  <assayResult>
0.934

$$$$
